- Tested on: M14 melanoma
- measurement-description: NCI tumour cell line growth inhibition, 48 h
Recorded TGI for the following compounds
parameter: TGI

1. c1ccc(CSCCc2ccncc2)cc1 ... > 100 µM
2. CC(C)CN=C(N)N=C(N)N ... > 100 µM
3. O=[As](O)(O)c1ccc(N=Nc2ccc(O)cc2)cc1 ... > 100 µM
4. CCCCCCCCCCCCCP(=O)(O)NCC(N)=O ... > 100 µM
5. COc1cccc(NC(=O)C(C#N)=C(SC)SC)c1 ... > 100 µM
6. O[C@H]1[C@H](O)[C@@H](O)[C@@]2(O)C[C@@H](O)[C@@H]1N2 ... > 100 µM
7. COc1ccc2cc(-c3c(-c4ccncc4)nc(-c4ccc(S(C)=O)cc4)n3C)ccc2c1 (stereo unspecified) ... > 25 µM
8. CCOc1ccc(-n2nnc3c(N)nc(N)nc32)cc1 ... > 100 µM
9. CN(CCCNC(=O)c1nn(-c2ccc(Cl)cc2Cl)c2c1Cc1ccccc1-2)CCCNC(=O)c1nn(-c2ccc(Cl)cc2Cl)c2c1Cc1ccccc1-2 ... 3.47 µM
10. N#CN1CC[C@H](C(=O)Nc2ncc(-c3ccncc3)s2)C1 ... 2.1 µM
11. Cc1nc2ccccc2c(/C=C/c2ccc(Br)cc2)c1C(=O)/C=C/c1ccccc1 ... 4.48 µM

###

- System: M14 melanoma
- measurement-description: NCI tumour cell line growth inhibition, 48 h
// TGI lookup, one value per entry
parameter: TGI

1. Cc1c(C2=C(c3cn(C)c4ccccc34)C(=O)NC2=O)c2ccccc2n1C ... > 25 µM
2. CC(=O)OCC1OC(n2c(=O)[nH]c(=O)c3sccc32)C(Br)C1OC(C)=O (stereo not given) ... > 100 µM
3. CN(C)c1ccc(/C=C2\C=Cc3ccccc32)cc1 ... > 100 µM
4. Fc1ccccc1C1SCc2nc3cc4ccccc4cc3n21 (stereo not given) ... > 100 µM
5. CC1=NN(C(=O)CSc2nc3ccc(I)cc3c(=O)n2Cc2ccccc2)C(=O)C1 ... > 100 µM

###

- Test system: NCI-H460 lung
- measurement-description: NCI tumour cell line growth inhibition, 48 h
parameter: log10 of TGI (log10 of the value in µM)

1. COc1cc(/C=C/[N+](=O)[O-])cc(Br)c1OC ... 1.06
2. COC(=O)C1=C(OC(=O)c2ccccc2)C(C(=O)OC)[C@]2(O)[C@@H](C(=O)OC)[C@H]1C[C@@H](c1ccccc1)[C@@H]2C(=O)OC (some centres not stated) ... 1.63
3. CC(=O)Oc1ccccc1C(=O)/C=C/c1cccc([N+](=O)[O-])c1 ... 0.97
4. COc1ccc(OC)c(Cn2cc3c(c2)-c2oncc2CC3)c1 ... 1.25
5. CCN(CCO)CC(C)Nc1ccc([N+](=O)[O-])c2sc3ccccc3c(=O)c12 (configuration not stated) ... 0.36
6. CC1=CC(=O)C(O)C2(C)C1CC(O)C13COC4(C)C(OC(=O)C41)C(O)C23 (configuration not stated) ... 1.80

###

- System: OVCAR-3 ovarian
- measurement-description: NCI tumour cell line growth inhibition, 48 h; in the data active = GI50 below about 0.43 µM; inactive = the rest
Possible outcomes: active, inactive

1) C[C@@H]1O[C@@H](O[C@H]2CC[C@@]3(C)[C@H](CCC4[C@@H]3C(O)C[C@]3(C)[C@@H](c5ccc(=O)oc5)CC[C@]43O)C2)[C@H](O)[C@H](O)[C@H]1O (some centres undefined) ... active
2) CCCCn1c(=O)c2c(nc3n2CCCN3CCc2ccc(OCC(=O)NCCN(CC)CC)cc2)n(CCCC)c1=O ... inactive
3) CCn1c2ccccc2c2cc(/C=C(/C#N)C(N)=O)ccc21 ... inactive
4) COc1ccc(C2[C@@H](Cl)C(=O)N2c2cc(OC)c(OC)c(OC)c2)cc1Cl (some centres undefined) ... active

###

Collected GI50 values appear next to each entry.
- Tested on: HCT-15 colon
- measurement-description: NCI tumour cell line growth inhibition, 48 h
parameter: GI50

1. CN1CCN(CC(O)COc2c(Br)c(Br)c(Br)c3c2OC(C)(C)C3)CC1 (stereo not given) ... 2.79 µM
2. O=c1[nH]cnc2c(C3NC(CO)C(O)C3O)c[nH]c12 (stereo not given) ... > 100 µM
3. CC(=O)c1c(C(F)(F)F)n([O-])c2ccc(C)cc2[n+]1=O ... 2.45 µM
4. COC1O[C@@H]2C[C@H]3C(C)(C)CCC[C@]3(C)C3=CCCC1[C@@]32C (stereo not given in full) ... > 100 µM
5. COc1ccc2cc(-c3c(-c4ccncc4)nc(-c4ccc(S(C)=O)cc4)n3C)ccc2c1 (stereo not given) ... 9.57 µM

###

- Tested on: SF-295 CNS
- measurement-description: NCI tumour cell line growth inhibition, 48 h
parameter: TGI (µM)

1) C#CCOc1cccc(Nc2ncnc3c(NC(=O)CCl)cccc23)c1 ... 34.5
2) CCn1c2ccccc2c2cc(/C=C(/C#N)C(N)=O)ccc21 ... 30
3) O=C(N/N=C/c1cc(Cl)cc(Cl)c1O)c1ccccc1O ... 11.3
4) CN(CCCNC(=O)c1nn(-c2ccc(Cl)cc2Cl)c2c1Cc1ccccc1-2)CCCNC(=O)c1nn(-c2ccc(Cl)cc2Cl)c2c1Cc1ccccc1-2 ... 3.15

###

- Tested on: OVCAR-4 ovarian
- measurement-description: NCI tumour cell line growth inhibition, 48 h
parameter: TGI

1. COC(=O)c1c(O)ccc2c1C1(Cc3ccccc3C1=O)C(O)O2 (stereo not drawn) ... 35.8 µM
2. c1ccc2c3c([nH]c2c1)C1CCCN1CC3 (stereo not drawn) ... > 10 µM
3. O=C(O)CNC(=O)c1c2ccccc2nc2ccccc12 ... > 100 µM
4. CC1=CC(=O)C(O)C2(C)C1CC(O)C13COC4(C)C(OC(=O)C41)C(O)C23 (stereo not drawn) ... > 100 µM
5. Cc1ccc(S(=O)(=O)NCCSCCSCCNS(=O)(=O)c2ccc(C)cc2)cc1 ... > 100 µM
6. O=C(O)COc1c(Cl)cc(Cl)c2cccnc12 ... > 100 µM
7. CSC(=S)N/N=C(\C)c1cccc(C)n1 ... 19.5 µM
8. Brc1ccc(-c2cn3ccncc3n2)cc1 ... > 100 µM
9. CCN(CC)Cc1sc2nc3ccccc3n2c1-c1ccc(OC)cc1 ... > 100 µM
10. Cc1ccc(S(=O)OC2C3CC4CC(C3)CC2C4)cc1 (stereo not drawn) ... > 100 µM
11. C/C=C(\C)c1cc(O)c(C)c2c1Oc1cc(O)c(Cl)c(C)c1C(=O)O2 ... 34.5 µM
12. N#Cc1ccc(N=Cc2c([O-])ccc3ccccc23)cc1.[C-]#[O+].[C-]#[O+].[Ir] ... 17.7 µM
13. Cn1c2ccccc2n2c(=O)c3c(c(C#N)c12)CCCC3 ... > 100 µM
14. CSCCC(NC(=O)Cc1ccc(C(=O)c2ccccc2)cc1)C(=O)O (stereo not drawn) ... > 100 µM
15. CCO/C=C1\N=C(c2ccccc2Br)OC1=O ... > 100 µM
16. O=c1onc2c3ccccc3ncn12 ... > 100 µM
17. COc1ccc(C(Cl)=C(c2ccc(OCCN(C)C)cc2)c2ccc(OCCN(C)C)cc2)cc1 ... 5.99 µM
18. C=CCOC(=O)C1C2OC3(C(C(=O)OC)=C2C(=O)OC)c2ccccc2CCC13 (stereo not drawn) ... > 10 µM
19. CN(CCCNC(=O)c1nn(-c2ccc(Cl)cc2Cl)c2c1Cc1ccccc1-2)CCCNC(=O)c1nn(-c2ccc(Cl)cc2Cl)c2c1Cc1ccccc1-2 ... 2.58 µM
20. CCN(Cc1ccc(Cl)s1)c1ccc(CO)c(Cl)c1 ... 0.776 µM
21. CN(C)CCC(/C=C/c1ccccc1)=N\Nc1ccc(Cl)cc1Cl ... 29.7 µM
22. Cn1cc(-c2nonc2-c2cn(C)c3ccccc23)c2ccccc21 ... > 100 µM
23. CC(NC(C)(C)C)C(=O)c1cccc(Cl)c1 (stereo not drawn) ... > 100 µM

###

- Test system: OVCAR-8 ovarian
- measurement-description: NCI tumour cell line growth inhibition, 48 h; in the data active = GI50 below about 0.43 µM; inactive = the rest
Classes used: active, inactive

1) CN1CCN(CC(O)COc2c(Br)c(Br)c(Br)c3c2OC(C)(C)C3)CC1 (stereo not drawn) ... inactive
2) COC1O[C@@H]2C[C@H]3C(C)(C)CCC[C@]3(C)C3=CCCC1[C@@]32C (stereo partly drawn) ... inactive
3) COc1ccc2c(c1OC)C(=O)OC2C1c2c(c([N+](=O)[O-])c3c(c2OC)OCO3)CCN1C (stereo not drawn) ... inactive
4) C[C@@H]1O[C@@H](OC[C@H]2O[C@@H](OCCc3ccc(O)c(O)c3)[C@H](O)[C@@H](O)[C@@H]2OC(=O)/C=C/c2ccc(O)c(O)c2)[C@H](O)[C@H](O)[C@H]1O ... inactive
5) CC1=CC(=O)C(O)C2(C)C1CC(O)C13COC4(C)C(OC(=O)C41)C(O)C23 (stereo not drawn) ... inactive
6) Cc1c(C2=C(c3cn(C)c4ccccc34)C(=O)NC2=O)c2ccccc2n1C ... inactive
7) CN1CCN(Cc2ccc(NC(=O)c3[nH]ncc3Nc3ncnc4sc5c(c34)CCCC5)cc2)CC1 ... active
8) CCCCn1c(=O)c2c(nc3n2CCCN3CCc2ccc(OCC(=O)NCCN(CC)CC)cc2)n(CCCC)c1=O ... inactive

FYI, the data here is from PubChem BioAssay (NCI).
